All figures here come from patent US10253002B2.

# Test system: VRE
# experiment-notes: Broth microdilution MIC, Example 7 (NCL812 and analogues)
# Assay type: cell-based, Enterococcus spp.
# setup-conditions: isolate VRE 2; 24 hours; 1st and 2nd replicate rows
measurement-label: MIC (μg/ml) at 24 hours, VRE 2

Known MIC (μg/ml) at 24 hours, VRE 2 results, listed for orientation:
NC(=O)N/N=C/c1cccc(F)c1    >128 µg/mL
Cc1ccccc1/C=N/NC(=O)N/N=C/c1ccccc1C    >128 µg/mL
N#Cc1cccc(/C=N/NC(=O)N/N=C/c2cccc(C#N)c2)c1    >128 µg/mL
O=C(N/N=C/c1ccc(F)cc1)N/N=C/c1ccc(F)cc1    >128 µg/mL
O=C(NN=Cc1ccc(C(F)(F)F)cc1)NN=Cc1ccc(C(F)(F)F)cc1    >128 µg/mL
Cl.N#Cc1ccccc1/C=N/NC(=N)N    >128 µg/mL
O=C(N/N=C/c1ccccc1Cl)N/N=C/c1ccccc1Cl    >128 µg/mL
NC(=O)N/N=C/c1ccccc1F    >128 µg/mL

Identify measured MIC (μg/ml) at 24 hours, VRE 2 corresponding to "Cc1ccc(/C=N/NC(=N)N)cc1.Cl" 128 µg/mL

Using known records, supply MIC (μg/ml) at 24 hours, VRE 2 for "Cc1cccc(C=NNC(=N)NN=Cc2cccc(C)c2)c1.Cl" 8 µg/mL

Tell me measured MIC (μg/ml) at 24 hours, VRE 2 for "FC(F)(F)c1ccc(C=NNC(=S)NN=Cc2ccc(C(F)(F)F)cc2)cc1" please. >128 µg/mL

----------
# Test system: S. aureus isolates (HA-MRSA, CA-MRSA, methicillin-susceptible staphylococci)
# experiment-notes: Kirby-Bauer disc diffusion resistotyping, Example 4
# Type: cell-based, Staphylococcus aureus
# setup-conditions: CA-MRSA (n = 10)
isolates resistant (Kirby-Bauer disc diffusion) values by entry
# number only, unit % dropped from output

Give the value of isolates resistant (Kirby-Bauer disc diffusion) reported for the following: CC1=C(C(=O)O)N2C(=O)[C@@H](NC(=O)[C@H](N)c3ccccc3)[C@H]2SC1 [Cephalexin] 20.00

Output measured isolates resistant (Kirby-Bauer disc diffusion) for this item: CN(C)[C@@H]1C(O)=C(C(N)=O)C(=O)[C@@]2(O)C(O)=C3C(=O)c4c(O)cccc4[C@@](C)(O)[C@H]3C[C@@H]12 [Tetracycline] 30.00

Look up isolates resistant (Kirby-Bauer disc diffusion) of CO[C@@]1(NC(=O)C2SC(=C(C(N)=O)C(=O)O)S2)C(=O)N2C(C(=O)O)=C(CSc3nnnn3C)CS[C@@H]21 (some centres unmarked) [Cefotetan] and report it. 20.00

Please give measured isolates resistant (Kirby-Bauer disc diffusion) of the following entry: CO[C@H]1/C=C/O[C@@]2(C)Oc3c(C)c(O)c4c(O)c(c(/C=N/N5CCN(C)CC5)c(O)c4c3C2=O)NC(=O)/C(C)=C\C=C\[C@H](C)[C@H](O)[C@@H](C)[C@@H](O)[C@@H](C)[C@H](OC(C)=O)[C@@H]1C [Rifampicin] 0.00

For the compound CCC[C@@H]1C[C@@H](C(=O)N[C@@H]([C@H]2O[C@H](SC)[C@H](O)[C@@H](O)[C@H]2O)[C@H](C)Cl)N(C)C1 [Clindamycin] , give its reported isolates resistant (Kirby-Bauer disc diffusion). 50.00
